Test system: HT-29 colon cancer cell line
Assay: NCI five-dose testing
Type: cell-based
Conditions: Homo sapiens, HT-29; read-out: IC50
So I've got a bunch of compounds here, and I need their IC50 values.
Give bare numbers, in nM.

// below: answered compounds
O=S(=O)(NCCCNc1cc(-c2cn(-c3ccccc3)nc2-c2cccc(O)c2)ccn1)c1ccc(C(F)(F)F)cc1 [Compound 2o]	500
COc1cccc(-c2nn(-c3ccccc3)cc2-c2ccnc(NCCCNS(=O)(=O)c3ccc(C(F)(F)F)cc3)c2)c1 [Compound 2g]	3210
O=S(=O)(NCCCNc1cc(-c2cn(-c3ccccc3)nc2-c2cccc(O)c2)ccn1)c1ccc(Br)cc1 [Compound 2k]	630

Kindly give each listed record's IC50.
1. O=S(=O)(NCCNc1cc(-c2cn(-c3ccccc3)nc2-c2cccc(O)c2)ccn1)c1ccc(C(F)(F)F)cc1 [Compound 1o]
2. O=S(=O)(NCCCNc1cc(-c2cn(-c3ccccc3)nc2-c2cccc(O)c2)ccn1)c1cccc2ccccc12 [Compound 2q]

[out]
1: 2040; 2: 1230

Kindly give each listed record's IC50.
1. O=S(=O)(NCCCNc1cc(-c2cn(-c3ccccc3)nc2-c2cccc(O)c2)ccn1)c1ccc(F)cc1 [Compound 2m]
2. COc1cccc(-c2nn(-c3ccccc3)cc2-c2ccnc(NCCNS(=O)(=O)c3ccc(C(F)(F)F)cc3)c2)c1 [Compound 1g]
3. COc1cccc(-c2nn(-c3ccccc3)cc2-c2ccnc(NCCCNS(=O)(=O)c3cccc(F)c3)c2)c1 [Compound 2h]

[out]
[2260, 2320, 2870]

Entry source: paper PMC6211260
